# measured on: human calcium-sensing receptor (CaSR) (Homo sapiens, UniProt P41180)
# Sequence (P41180 20-1078): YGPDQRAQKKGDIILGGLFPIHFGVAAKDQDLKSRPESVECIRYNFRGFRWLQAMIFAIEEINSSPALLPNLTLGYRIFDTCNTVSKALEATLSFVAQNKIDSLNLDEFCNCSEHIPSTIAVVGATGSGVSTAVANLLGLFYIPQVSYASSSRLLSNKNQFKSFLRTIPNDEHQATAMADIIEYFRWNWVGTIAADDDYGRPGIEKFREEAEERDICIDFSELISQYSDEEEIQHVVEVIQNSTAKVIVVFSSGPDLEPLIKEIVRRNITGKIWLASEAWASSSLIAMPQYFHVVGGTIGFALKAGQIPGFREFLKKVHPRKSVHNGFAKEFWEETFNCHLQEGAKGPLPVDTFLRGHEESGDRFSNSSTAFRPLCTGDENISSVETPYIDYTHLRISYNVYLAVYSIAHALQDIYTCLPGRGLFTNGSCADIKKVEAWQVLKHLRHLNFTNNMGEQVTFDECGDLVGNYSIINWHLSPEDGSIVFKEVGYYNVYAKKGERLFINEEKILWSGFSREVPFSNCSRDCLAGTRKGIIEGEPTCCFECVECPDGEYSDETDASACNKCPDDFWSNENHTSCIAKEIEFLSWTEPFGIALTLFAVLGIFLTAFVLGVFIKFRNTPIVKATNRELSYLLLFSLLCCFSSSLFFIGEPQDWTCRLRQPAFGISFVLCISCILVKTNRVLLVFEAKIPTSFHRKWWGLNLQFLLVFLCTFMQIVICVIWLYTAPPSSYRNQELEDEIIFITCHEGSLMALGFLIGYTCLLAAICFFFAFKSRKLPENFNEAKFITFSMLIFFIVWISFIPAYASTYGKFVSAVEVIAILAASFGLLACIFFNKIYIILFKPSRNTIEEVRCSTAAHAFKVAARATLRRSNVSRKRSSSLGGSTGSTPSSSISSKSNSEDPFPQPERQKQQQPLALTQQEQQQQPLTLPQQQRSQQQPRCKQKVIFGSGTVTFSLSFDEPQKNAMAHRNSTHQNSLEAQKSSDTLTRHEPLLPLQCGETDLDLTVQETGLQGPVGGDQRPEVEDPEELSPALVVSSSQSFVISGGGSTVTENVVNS
# procedure details: Inhibitory activity on calcium-sensing receptor (CaSR), intracellular calcium increase as indicator (FLIPR, CHO/hCaSR)
# conditions: CHO cells stably expressing human CaSR; inhibition of intracellular Ca increase induced by extracellular CaCl2
measure name: IC50

                                chem_smiles  assay_value
0  Cc1ccc(C[C@@H]2CCCN2C[C@@H](O)CO[C@@H](c2ccccc2CCC(=O)O)C2CC2)cc1F    ≤ 3.41 µM
1  CCOc1cccc([C@@H](C)OC[C@H](O)CN2CCC[C@H]2Cc2ccc(C)c(F)c2)c1CCCCC(=O)O     ≤ 3.1 µM
2  C[C@@H](OC[C@H](O)CN1CCC[C@H]1Cc1ccc(F)c(Cl)c1)c1ccccc1CCC(=O)O    ≤ 3.45 µM

Moving on to another molecule below.
Tell us which IC50 value is on record for CC[C@@H](OC[C@H](O)CN1CCC[C@H]1Cc1ccc(Cl)c(Cl)c1)c1cccc(C)c1CCC(=O)O
≤ 3.15 µM

Provenance of the data: patent US8173631B2
